EXPERIMENTAL_SYSTEM: 5-HT2C receptor (Homo sapiens)
Construct: host or cells: U2OS
MEASUREMENT_NOTES: Human 5-HT2C functional assay (beta-arrestin2 recruitment, U2OS_HTR2C_β-Arrestin cells)
Format: cell-based
CONDITION_NOTES: Potency (EC50 5-HT2C) in functional assay; agonism; read-out: EC50 5-HT2C
READOUT: EC50

The reported 5-HT2C receptor (Homo sapiens) EC50 of COC[C@@H]1C[C@@H]2CNCCN2c2cc(F)c(F)c(Cl)c2O1.Cl [Example 38, hydrochloride] is < 20 nM

Entry COC[C@@H]1C[C@@H]2CNCCN2c2cc(Cl)ccc2O1.Cl [Example 10, hydrochloride] , tested on 5-HT2C receptor (Homo sapiens), has a reported EC50 of 20 to 200 nM

The compound "COC[C@@H]1C[C@@H]2CNCCN2c2cc(Cl)cc(Cl)c2O1" on 5-HT2C receptor (Homo sapiens): EC50 was 20 to 200 nM

* * *

EXPERIMENTAL_SYSTEM: 5-HT2C receptor (Homo sapiens, UniProt P28335)
Construct: host or cells: U2OS
Sequence (P28335 33-458): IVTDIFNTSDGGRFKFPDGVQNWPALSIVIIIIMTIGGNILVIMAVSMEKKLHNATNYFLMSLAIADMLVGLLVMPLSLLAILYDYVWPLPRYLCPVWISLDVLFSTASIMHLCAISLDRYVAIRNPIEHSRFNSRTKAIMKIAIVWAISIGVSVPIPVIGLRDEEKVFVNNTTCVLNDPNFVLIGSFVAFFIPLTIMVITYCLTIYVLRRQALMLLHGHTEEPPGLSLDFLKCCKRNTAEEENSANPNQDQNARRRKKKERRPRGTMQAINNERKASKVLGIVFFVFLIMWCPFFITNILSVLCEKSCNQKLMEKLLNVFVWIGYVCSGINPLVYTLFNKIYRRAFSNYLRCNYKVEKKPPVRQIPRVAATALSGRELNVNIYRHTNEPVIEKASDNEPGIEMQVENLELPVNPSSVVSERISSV
Sequence (P32121 whole entry partner): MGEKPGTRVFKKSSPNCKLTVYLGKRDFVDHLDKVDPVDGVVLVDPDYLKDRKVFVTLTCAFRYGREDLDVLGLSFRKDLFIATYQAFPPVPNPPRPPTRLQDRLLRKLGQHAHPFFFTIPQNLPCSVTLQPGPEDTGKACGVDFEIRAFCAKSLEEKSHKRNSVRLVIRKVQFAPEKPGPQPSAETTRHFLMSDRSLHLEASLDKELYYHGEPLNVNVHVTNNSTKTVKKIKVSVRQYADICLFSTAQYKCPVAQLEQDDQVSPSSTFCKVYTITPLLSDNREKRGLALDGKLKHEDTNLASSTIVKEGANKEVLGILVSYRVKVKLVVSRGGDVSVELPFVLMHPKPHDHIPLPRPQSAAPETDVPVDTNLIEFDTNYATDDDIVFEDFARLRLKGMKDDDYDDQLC
MEASUREMENT_NOTES: Human 5-HT2C functional assay (beta-arrestin2 recruitment, U2OS_HTR2C_β-Arrestin cells)
Assay type: cell-based
CONDITION_NOTES: Potency (EC50 5-HT2C) in functional assay; agonism; read-out: EC50 5-HT2C
pEC50: −log10 of the molar value.
For each record, write down the corresponding pEC50.

Entry COC[C@@H]1C[C@@H]2CNCCN2c2c(cc(F)c(F)c2F)O1.Cl [Example 47, hydrochloride] ; pEC50 = 6.70 to 7.70

Note to self: pEC50 recorded for COC[C@@H]1C[C@@H]2CNCCN2c2c(F)cccc2O1.Cl [Example 54, hydrochloride] was 6.00 to 6.70

pEC50 reported for this compound COC[C@@H]1C[C@@H]2CNCCN2c2c(ccc(F)c2F)O1.Cl [Example 21, hydrochloride] : 6.70 to 7.70

Per the record, COC[C@@H]1C[C@@H]2CNCCN2c2c(F)c(OC)cc(C(F)F)c2O1.Cl [Example 29, hydrochloride] has pEC50 of 6.70 to 7.70

// pEC50 lookup, compound = C#Cc1cc(F)cc2c1O[C@H](COC)C[C@@H]1CNCCN21.Cl [Example 34, hydrochloride] , result: > 7.70

Reported pEC50 for COC[C@@H]1C[C@@H]2CNCCN2c2cccc(F)c2O1.Cl [Example 50, hydrochloride] was 6.70 to 7.70

Recorded pEC50 (compound COC[C@@H]1C[C@@H]2CNCCN2c2cc(C)cc(F)c2O1 [Example 33] ): 6.00 to 6.70

Given item COC[C@@H]1C[C@@H]2CNCCN2c2nccc(C(F)F)c2O1.O=C(O)C(F)(F)F [Example 27] , the value recorded as its pEC50 is 6.70 to 7.70

Noted for COC[C@@H]1C[C@@H]2CNCCN2c2cccc(OC(F)F)c2O1 [Example 42] : its pEC50 reads > 7.70

Short answer for COC[C@@H]1C[C@@H]2CNCCN2c2ccc(C)c(F)c2O1 [Example 30] : pEC50 was 6.70 to 7.70

Noted for COC[C@@H]1C[C@@H]2CNCCN2c2cc(F)ccc2O1.Cl [Example 8, hydrochloride] : its pEC50 reads 6.70 to 7.70

response.value for Cc1ccc2c(c1F)O[C@H](CO)C[C@@H]1CNCCN21 [Example 39] (field: pEC50) = 6.70 to 7.70

Lab note: COC[C@@H]1C[C@@H]2CNCCN2c2cc(F)cc(Cl)c2O1.Cl [Example 7, hydrochloride] gave pEC50 of > 7.70

Looking up COC[C@@H]1C[C@@H]2CNCCN2c2cccc(C(F)F)c2O1.Cl [Example 6, hydrochloride] , I see its pEC50 listed as > 7.70

Notebook: COC[C@@H]1C[C@@H]2CNCCN2c2cc(Cl)cc(F)c2O1 [Example 25] , pEC50 read as 6.70 to 7.70

The reported value for COC[C@@H]1C[C@@H]2CNCCN2c2ccc(F)c(Cl)c2O1.Cl [Example 5, hydrochloride] in terms of pEC50 is > 7.70

pEC50 in this record for COC[C@@H]1C[C@@H]2CNCCN2c2cc(Cl)c(F)cc2O1.Cl [Example 31, hydrochloride] : 6.70 to 7.70

Every entry's value here was drawn from patent US20200002354A1.
